System: Fibroblast
Assay: Multiplex assay against human fibroblast
Format: toxicity, cell-based
Conditions: 48 h, 10 µM, compound concentration 10 uM, replicate 2
Population Hoechst High Intensity Objects (%) values by entry
Answer with a number only, understood to be in %.

Worked set:
compound=CNC(=O)Nc1ccc(-c2nc(N3CC4CCC(C3)O4)c3cnn(C4CCC5(CC4)OCCO5)c3n2)cc1 assayresult=9
compound="Cc1ccccc1C(c1ccccc1C)N1C2CCC1CC(O)(c1ccccc1)C2 (stereo not given)" assayresult=4
compound=C#Cc1cccc(Nc2ncnc3cc(OCCOC)c(OCCOC)cc23)c1 assayresult=23
compound=CC(C)c1noc(N2CCC(COc3ccc(-c4ccc(S(C)(=O)=O)cc4)nc3)CC2)n1 assayresult=9

Consider the additional compound presented here.
Summary for this compound, COc1cc2ncn(-c3cc(OCc4ccccc4C(F)(F)F)c(C(N)=O)s3)c2cc1OC [GW843682X] : Population Hoechst High Intensity Objects (%) is 16
